Provide the recorded Antiandrogenic Activity Shionogi, DHT E^−6 for the entries that follow.
# Tested on: Shionogi mouse mammary carcinoma cells
# EXPERIMENTAL_DETAILS: Antiandrogenic activity: inhibition of DHT-induced proliferation of Shionogi cells
# Type: cell-based
# CONDITION_DETAILS: Table 4′; DHT-induced proliferation, E^−6 (10^−6 M)
# answer = value followed by unit

compound=CC1(C)CC[C@@]2(CC[C@H]3[C@@H]4CCc5c(cc(Br)c(O)c5Br)[C@H]4CC[C@@]32C)OC1=O test_system="Shionogi mouse mammary carcinoma cells" result=0%
compound="CN(C)C(=O)c1ccc2c(c1)CCC1C2CCC2(C)C1CCC21CCC(C)(C)C(=O)O1 (stereo not shown)" test_system="Shionogi mouse mammary carcinoma cells" result=−54%
compound="COCCOc1cc2c(cc1C#N)C1CC[C@@]3(C)C(CC[C@@]34CCC(C)(C)C(=O)O4)C1CC2 (stereo partly shown)" test_system="Shionogi mouse mammary carcinoma cells" result=−29%

Alright, here's another compound for you.
Reported Shionogi mouse mammary carcinoma cells Antiandrogenic Activity Shionogi, DHT E^−6 for item COc1ccc2c(c1)CCC1C2CCC2(C)C1CCC21CCC(C)(C)C(=O)O1 (stereo not shown) was −28%

* * *

Provide the recorded inhibition for the entries that follow.
# TEST_SYSTEM: human type 2 17β-hydroxysteroid dehydrogenase (Homo sapiens, UniProt P37059)
# Construct: expressed in transfected cells; host or cells: 293 cells, transient transfection; microsomal fraction (100 000×g pellet)
# Sequence (P37059 whole entry): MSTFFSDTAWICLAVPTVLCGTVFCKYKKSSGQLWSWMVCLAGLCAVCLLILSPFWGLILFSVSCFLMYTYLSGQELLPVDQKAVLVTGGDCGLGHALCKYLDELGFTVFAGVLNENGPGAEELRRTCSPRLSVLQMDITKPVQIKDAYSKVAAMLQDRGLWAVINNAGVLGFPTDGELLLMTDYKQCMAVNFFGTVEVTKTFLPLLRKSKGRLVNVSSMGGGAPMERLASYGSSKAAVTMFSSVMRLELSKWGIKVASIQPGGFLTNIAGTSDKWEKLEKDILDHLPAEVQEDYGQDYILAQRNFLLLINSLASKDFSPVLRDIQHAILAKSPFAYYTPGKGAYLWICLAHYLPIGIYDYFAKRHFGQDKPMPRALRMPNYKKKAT
# EXPERIMENTAL_DETAILS: Enzymatic assay for type 2 17β-HSD
# Type: biochemical
# CONDITION_DETAILS: Table 4′; bracketed values, 3 · 10^−8M; read-out: Inhibition Type 2 17β-HSD Activity [% Inh. at 3 · 10^−8M]
# Experimental: The manner in which IC50 was determined is described in “Efficacy of Preferred Inhibitors: VI. Enzymatic assay for types 1, 2, and 3 17β-HSD and types 1 and 3 3α-HSD”. […] numbers of IC50 are desirable. Blank means that a determination was not done. […] Enzyme sources. […] Extraction of metabolites, migration on TLC and quantification were as described above for the assay of type 5 17β-HSD.
One number for each entry, in %.

Recorded inhibition, per entry:
compound="C=CCC1CCC2(CCC3C4CCc5cc(O)ccc5C4CCC32C)OC1=O (stereo not drawn)" measure_unit=% measured_number=50
compound="COC(=O)c1cc2c(cc1O)CCC1C2CCC2(C)C1CCC21CCC(C)(C)C(=O)O1 (stereo not drawn)" measure_unit=% measured_number=70
compound="CC1CC(=O)OC2(CCC3C4CCc5cc(O)ccc5C4CCC32C)C1 (stereo not drawn)" measure_unit=% measured_number=69
compound="CCS(=O)(=O)Oc1ccc2c(c1)CCC1C2CCC2(C)C1CCC21CCC(C)(C)C(=O)O1 (stereo not drawn)" measure_unit=% measured_number=73
compound="COc1cc2c(cc1C(F)(F)F)C1CCC3(C)C(CCC34CCC(C)(C)C(=O)O4)C1CC2 (stereo not drawn)" measure_unit=% measured_number=4
compound="COCCOc1cc2c(cc1C(=O)N(C)C)C1CCC3(C)C(CCC34CCC(C)(C)C(=O)O4)C1CC2 (stereo not drawn)" measure_unit=% measured_number=69

Can you give me inhibition for all of these, one by one?
1. C[C@]12CCC3c4ccc(O)cc4CCC3C1CC[C@@]21CCCC(=O)O1 (stereo partly drawn)
2. CN(C)C(=O)c1cc2c(cc1O)CCC1C2CCC2(C)C1CCC21CCC(C)(C)C(=O)O1 (stereo not drawn)
3. CC12CCC3c4ccc(F)cc4CCC3C1CCC21CCCC(=O)O1 (stereo not drawn)
4. CCOc1ccc2c(c1)CCC1C2CC[C@@]2(C)C1CC[C@@]21CCC(C)(C)C(=O)O1 (stereo partly drawn)
5. COc1ccc2c(c1)CCC1C2CCC2(C)C1CCC21CCC(C)(C)C(=O)O1 (stereo not drawn)
6. CC1CCC2(CCC3C4CCc5cc(O)c([N+](=O)[O-])cc5C4CCC32C)OC1=O (stereo not drawn)
7. CC1CCC2(CCC3C4CCc5ccccc5C4CCC32C)OC1=O (stereo not drawn)
8. COCCOc1ccc2c(c1)C(=O)CC1C2CCC2(C)C1CCC21CCC(C)(C)C(=O)O1 (stereo not drawn)

Response:
1: 86; 2: 55; 3: 84; 4: 62; 5: 33; 6: 70; 7: 64; 8: 66

Can you give me inhibition for all of these, one by one?
1. CC1(C)CCC2(CCC3C4CC(=O)c5cc(O)ccc5C4CCC32C)OC1=O (stereo not drawn)
2. COC(=O)C1CCC2(CCC3C4CCc5cc(O)ccc5C4CCC32C)OC1=O (stereo not drawn)
3. CC1(C)CCC2(CCC3C4CCc5cc(O)c(C(N)=O)cc5C4CCC32C)OC1=O (stereo not drawn)
4. CC1(C)CC[C@@]2(CCC3C4CCc5cc(C(=O)O)ccc5C4CC[C@@]32C)OC1=O (stereo partly drawn)

Response:
1. 58
2. 75
3. 59
4. 76

Can you give me inhibition for all of these, one by one?
1. CC1(C)CC[C@@]2(CCC3C4CCc5cc6oncc6cc5C4CC[C@@]32C)OC1=O (stereo partly drawn)
2. COCCOc1ccc2c(c1)CCC1C2CCC2(C)C1CCC21CCC(C)(C)C(=O)O1 (stereo not drawn)
3. CC1(C)CCC2(CCC3C4CCc5cc(O)c(C#N)cc5C4CCC32C)OC1=O (stereo not drawn)

Response:
1. 68
2. 73
3. 38

* * *

# System: Shionogi mouse mammary carcinoma cells
# EXPERIMENTAL_DETAILS: Antiandrogenic activity: inhibition of DHT-induced proliferation of Shionogi cells
# Format: cell-based
# CONDITION_DETAILS: Table 4′; DHT-induced proliferation, E^−6 (10^−6 M)
RECORDED_METRIC: Antiandrogenic Activity Shionogi, DHT E^−6 (%)
One number for each entry, in %.

compound="CC1(C)CC[C@@]2(CCC3C4CCc5cc6oncc6cc5C4CC[C@@]32C)OC1=O (stereo partly drawn)" test_system="Shionogi mouse mammary carcinoma cells" measure_unit=% measured_number=−96

Can you give me Antiandrogenic Activity Shionogi, DHT E^−6 for all of these, one by one?
1. CC12CCC3c4ccc(O)cc4CCC3C1CCC21CC=CC(=O)O1 (stereo not drawn)
2. CCS(=O)(=O)Oc1ccc2c(c1)CCC1C2CCC2(C)C1CCC21CCC(C)(C)C(=O)O1 (stereo not drawn)
3. CCC1(CC)CC[C@@]2(CC[C@H]3[C@@H]4CCc5cc(O)ccc5[C@H]4CC[C@@]32C)OC1=O
4. CC1(C)CCC2(CCC3C4CCc5c(cc(Cl)c(O)c5Cl)C4CCC32C)OC1=O (stereo not drawn)
5. COCCOc1cc2c(cc1C(=O)OC)C1CC[C@@]3(C)C(CC[C@@]34CCC(C)(C)C(=O)O4)C1CC2 (stereo partly drawn)
6. CC1(C)CCC2(CCC3C4CCc5cc(OS(C)(=O)=O)ccc5C4CCC32C)OC1=O (stereo not drawn)
7. CSCCOc1ccc2c(c1)CCC1C2CCC2(C)C1CCC21CCCC(=O)O1 (stereo not drawn)

Response:
0
−59
−41
−19
−87
−53
−66

Can you give me Antiandrogenic Activity Shionogi, DHT E^−6 for all of these, one by one?
1. COCCOc1cc2c(cc1Cl)C1CCC3(C)C(CCC34CCC(C)(C)C(=O)O4)C1CC2 (stereo not drawn)
2. C[C@]12CCC3c4cc([N+](=O)[O-])c(O)cc4CCC3C1CC[C@@]21CCCC(=O)O1 (stereo partly drawn)

Response:
1: −76; 2: −65

* * *

# TEST_SYSTEM: glucocorticoid receptor (Rattus norvegicus, UniProt P06536)
# Construct: from tissue; host or cells: liver cytosol of male Sprague-Dawley rats
# Sequence (P06536 1-795): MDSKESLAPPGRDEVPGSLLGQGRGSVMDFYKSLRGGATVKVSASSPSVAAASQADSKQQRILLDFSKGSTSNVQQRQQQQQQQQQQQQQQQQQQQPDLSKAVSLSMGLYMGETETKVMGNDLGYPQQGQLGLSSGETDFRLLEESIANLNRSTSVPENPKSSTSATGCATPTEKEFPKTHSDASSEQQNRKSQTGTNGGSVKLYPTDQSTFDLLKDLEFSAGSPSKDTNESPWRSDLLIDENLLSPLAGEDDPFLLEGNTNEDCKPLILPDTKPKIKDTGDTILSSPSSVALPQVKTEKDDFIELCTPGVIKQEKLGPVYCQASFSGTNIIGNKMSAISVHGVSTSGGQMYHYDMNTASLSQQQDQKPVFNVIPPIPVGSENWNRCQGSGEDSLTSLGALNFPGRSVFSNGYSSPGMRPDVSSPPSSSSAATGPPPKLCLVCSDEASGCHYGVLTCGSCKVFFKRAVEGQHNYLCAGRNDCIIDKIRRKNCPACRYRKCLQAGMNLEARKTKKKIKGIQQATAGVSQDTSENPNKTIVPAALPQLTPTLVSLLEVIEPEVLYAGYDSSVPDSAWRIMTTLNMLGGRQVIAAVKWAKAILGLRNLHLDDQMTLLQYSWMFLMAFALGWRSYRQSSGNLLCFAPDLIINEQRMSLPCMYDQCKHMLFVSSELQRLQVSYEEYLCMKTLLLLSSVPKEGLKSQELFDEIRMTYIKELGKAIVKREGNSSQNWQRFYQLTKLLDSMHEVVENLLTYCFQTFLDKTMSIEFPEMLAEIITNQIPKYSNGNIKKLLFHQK
# EXPERIMENTAL_DETAILS: Glucocorticoid receptor assay: inhibition of [3H]-dexamethasone binding, liver cytosol
# CONDITION_DETAILS: E^−8
RECORDED_METRIC: % Inhibition Glucocorticoid Receptor E^−8 (%)
Give bare numbers, in %.

Recorded % Inhibition Glucocorticoid Receptor E^−8, per entry:
molecule="CC(C)C[C@@H]1CC2C3C=CC4=CC(=O)CC[C@]4(C)C3CC[C@]2(C)C1=O (stereo partly shown) [EM-1273-CS]" measured_number=0
molecule="CCC[C@@H]1CC2C3C=CC4=CC(=O)CC[C@]4(C)C3CC[C@]2(C)C1=O (stereo partly shown) [EM-1097]" measured_number=0
molecule="CC12C=CC(=O)C=C1C=CC1C2CCC2(C)C(=O)C3(CCCCC3)CC12 (stereo not shown) [CS-204]" measured_number=0
molecule="CCCC(=O)O[C@]1(C)C(=O)CCC2C3C=C(C)C4=CC(=O)CC[C@]4(C)C3CC[C@@]21C (stereo partly shown) [EM-1078]" measured_number=20
molecule="C[C@]12CCC(=O)C=C1C=C[C@@H]1[C@@H]2CC[C@]2(C)C(=O)C3(CC4CC4C3)C[C@@H]12 (stereo partly shown) [EM-1299]" measured_number=0

Can you give me % Inhibition Glucocorticoid Receptor E^−8 for all of these, one by one?
1. CC(=O)O[C@]1(C)C(=O)CCC2C3C=C(C)C4=CC(=O)C=C[C@]4(C)C3CC[C@@]21C (stereo partly shown) [CS-237]
2. CCC[C@]1(F)CC2C3C=CC4=CC(=O)CC[C@]4(C)C3CC[C@]2(C)C1=O (stereo partly shown) [EM-1183]

Response:
7
0
